assay: Digestion test in vitro, salivary amylase; format: in vitro ADME; conditions: Table 1, read-out: Hydrolysis rate
Measured Parameter: metabolised
Entry format: amount then unit.

Given item OC[C@H]1O[C@@H](O[C@H]2O[C@H](CO)[C@@H](O)[C@H](O)[C@H]2O)[C@H](O)[C@@H](O)[C@@H]1O [neotrehalose, O-α-D-glucopyranosyl β-D-glucopyranoside] , the value recorded as its metabolised is 0%

###

Property: metabolised; scope: individual compounds
Assay: Digestion test in vitro, enzyme of small intestinal mucous membrane
Type: in vitro ADME
Conditions: small intestinal mucosal enzyme, Tables 1 and 2, read-out: Hydrolysis rate
Method: In accordance with the method reported in K. Okada et al., Journal of Japanese Society of Nutrition and Food Science, Vol.43, No.1, pp.23-29 (1990), a crystalline neotrehalose specimen formulated by the method in Example A1-2 was prepared as an aqueous solution which was then tested for its digestibility in vitro: The digestibility was determined with the following equation and expressed as hydrolysis rate (%): [formula] […]
# unit: % | format: bare number

| Compound | Unit Tag | Val |
| --- | --- | --- |
| OC[C@H]1O[C@H](O[C@H]2O[C@H](CO)[C@@H](O)[C@H](O)[C@H]2O)[C@H](O)[C@@H](O)[C@@H]1O | % | 0.4 |
| OC[C@H]1O[C@@H](O[C@@H]2O[C@H](CO)[C@@H](O)[C@H](O)[C@H]2O)[C@H](O)[C@@H](O)[C@@H]1O | % | 0.1 |

Now let's try a different one.
Given item OC[C@H]1O[C@@H](O[C@H]2O[C@H](CO)[C@@H](O)[C@H](O)[C@H]2O)[C@H](O)[C@@H](O)[C@@H]1O [neotrehalose, O-α-D-glucopyranosyl β-D-glucopyranoside] , the value recorded as its metabolised is 43
